B1: library; a variant is named by its letters at N, in order (parent)
chain: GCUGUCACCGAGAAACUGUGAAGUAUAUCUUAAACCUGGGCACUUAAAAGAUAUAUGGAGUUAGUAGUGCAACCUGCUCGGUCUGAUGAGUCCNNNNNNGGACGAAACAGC

# Variants of: B1
# TEST_DESCRIPTION: normalized RNA/DNA level without ligand (relative to sTRSVctl = 100) (log10 (% of sTRSVctl)); HEK293T; ligand: cyclic di-GMP (c-di-GMP-II aptamer); higher = less ribozyme self-cleavage, higher mRNA level
# TEST_CONDITIONS: reporter: mCherry (pCS4076), ligand present: no
ASSAY_ENDPOINT: normalized RNA/DNA level without ligand (log10)
Respond using a number only.

Take a look at these entries with their results.
1. GCUGUCACCGAGAAACUGUGAAGUAUAUCUUAAACCUGGGCACUUAAAAGAUAUAUGGAGUUAGUAGUGCAACCUGCUCGGUCUGAUGAGUCCUGGUCAGGACGAAACAGC [UGGUCA]	1.78
2. GCUGUCACCGAGAAACUGUGAAGUAUAUCUUAAACCUGGGCACUUAAAAGAUAUAUGGAGUUAGUAGUGCAACCUGCUCGGUCUGAUGAGUCCGAGGAAGGACGAAACAGC [GAGGAA]	1.6
3. GCUGUCACCGAGAAACUGUGAAGUAUAUCUUAAACCUGGGCACUUAAAAGAUAUAUGGAGUUAGUAGUGCAACCUGCUCGGUCUGAUGAGUCCUUCUGAGGACGAAACAGC [UUCUGA]	1.73
4. GCUGUCACCGAGAAACUGUGAAGUAUAUCUUAAACCUGGGCACUUAAAAGAUAUAUGGAGUUAGUAGUGCAACCUGCUCGGUCUGAUGAGUCCCGACAAGGACGAAACAGC [CGACAA]	1.29
5. GCUGUCACCGAGAAACUGUGAAGUAUAUCUUAAACCUGGGCACUUAAAAGAUAUAUGGAGUUAGUAGUGCAACCUGCUCGGUCUGAUGAGUCCACUAUAGGACGAAACAGC [ACUAUA]	1.53
6. GCUGUCACCGAGAAACUGUGAAGUAUAUCUUAAACCUGGGCACUUAAAAGAUAUAUGGAGUUAGUAGUGCAACCUGCUCGGUCUGAUGAGUCCUACCCGGGACGAAACAGC [UACCCG]	1.77
7. GCUGUCACCGAGAAACUGUGAAGUAUAUCUUAAACCUGGGCACUUAAAAGAUAUAUGGAGUUAGUAGUGCAACCUGCUCGGUCUGAUGAGUCCCCUUGCGGACGAAACAGC [CCUUGC]	1.72
8. GCUGUCACCGAGAAACUGUGAAGUAUAUCUUAAACCUGGGCACUUAAAAGAUAUAUGGAGUUAGUAGUGCAACCUGCUCGGUCUGAUGAGUCCCCAUGUGGACGAAACAGC [CCAUGU]	1.68
9. GCUGUCACCGAGAAACUGUGAAGUAUAUCUUAAACCUGGGCACUUAAAAGAUAUAUGGAGUUAGUAGUGCAACCUGCUCGGUCUGAUGAGUCCGCUAAAGGACGAAACAGC [GCUAAA]	1.46
10. GCUGUCACCGAGAAACUGUGAAGUAUAUCUUAAACCUGGGCACUUAAAAGAUAUAUGGAGUUAGUAGUGCAACCUGCUCGGUCUGAUGAGUCCUUGUAAGGACGAAACAGC [UUGUAA]	1.69

# ---- query variant ----
Qu. Entry GCUGUCACCGAGAAACUGUGAAGUAUAUCUUAAACCUGGGCACUUAAAAGAUAUAUGGAGUUAGUAGUGCAACCUGCUCGGUCUGAUGAGUCCCCAGCCGGACGAAACAGC [CCAGCC] has what normalized RNA/DNA level without ligand (log10)?
Ans. 1.76
